Biological target: HCV NS3 helicase NS3h_1b(con1) (Hepatitis C virus genotype 1b)
Construct: truncated C-terminally His-tagged NS3 proteins lacking the N-terminal protease, called NS3h; His-tag (C); made in house
Sequence (Q9WMX2 1192-1657): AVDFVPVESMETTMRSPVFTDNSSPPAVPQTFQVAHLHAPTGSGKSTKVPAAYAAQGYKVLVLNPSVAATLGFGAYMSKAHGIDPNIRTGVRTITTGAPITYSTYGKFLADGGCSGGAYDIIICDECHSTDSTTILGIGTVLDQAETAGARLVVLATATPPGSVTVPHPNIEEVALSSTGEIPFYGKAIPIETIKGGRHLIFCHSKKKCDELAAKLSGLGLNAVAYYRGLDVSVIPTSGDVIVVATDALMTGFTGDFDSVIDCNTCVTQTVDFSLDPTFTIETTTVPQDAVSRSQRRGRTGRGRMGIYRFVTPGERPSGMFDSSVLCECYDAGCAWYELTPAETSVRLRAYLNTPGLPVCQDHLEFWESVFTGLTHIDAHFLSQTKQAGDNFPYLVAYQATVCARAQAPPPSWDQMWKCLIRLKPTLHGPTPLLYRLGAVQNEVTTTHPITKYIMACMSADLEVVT
Experiment: MBHA screen of NCI mechanistic set library at 20 μM (percent inhibition, compound interference)
Format: biochemical
Settings: compounds at 20 μM, MBHA with DNA substrate; assay interference calculated with Equation 2
Assign a class from recorded Int.* (Ratio) (Interference); defined classes: LOW (below 0.9 Ratio), MEDIUM (0.9 Ratio to below 1 Ratio), HIGH (1 Ratio or more)

Prompt line: Hey, which category is Cc1ccc(C2NC(=O)c3ccccc3N2)s1 (stereo not drawn) in, do you know?
Response line: MEDIUM

Prompt line: Hey, which category is CC(=O)OCCN1c2ccccc2Sc2cnccc21 in, do you know?
Response line: MEDIUM

Prompt line: Hey, which category is CCCCCCCCCCCCC(O)C(=O)O (stereo not drawn) in, do you know?
Response line: HIGH

Prompt line: Hey, which category is Clc1ccc(-c2c(C3=NCCCN3)nnn2-c2ccc(Cl)cc2)cc1 in, do you know?
Response line: MEDIUM

Prompt line: Hey, which category is CCN(CC)C(=S)S in, do you know?
Response line: HIGH

Prompt line: Hey, which category is Cc1cc2c(c3oc(C4(C)OC4C4OC4C)cc(=O)c13)C(=O)c1c(O)c(C3CC(C)(N(C)C)C(O)C(C)O3)cc(C3CC(N(C)C)C(O)C(C)O3)c1C2=O (stereo not drawn) in, do you know?
Response line: LOW

Prompt line: Hey, which category is C[n+]1cc2cc(O)c(O)cc2c2ccc3cc(O)c(O)cc3c21.Cl.[Cl-].c1ccncc1 in, do you know?
Response line: LOW

Prompt line: Hey, which category is CS(=O)(=O)c1nc(N)nc2nc[nH]c12 in, do you know?
Response line: LOW

Prompt line: Hey, which category is O=c1c(Br)c(-c2ccccc2)[nH]c2ccccc12 in, do you know?
Response line: MEDIUM

Prompt line: Hey, which category is COc1ccc(-c2cc(-c3ccccc3)nc3c2CC(=O)Nc2ccccc2-3)cc1OC in, do you know?
Response line: MEDIUM

Prompt line: Hey, which category is CN(C)c1ccc(/C=C/C(=O)c2ccccc2)cc1Br in, do you know?
Response line: LOW

Prompt line: Hey, which category is O=C([CH-]C(=O)C(F)(F)F)c1ccccc1.O=C([CH-]C(=O)C(F)(F)F)c1ccccc1.O=C([CH-]C(=O)C(F)(F)F)c1ccccc1.O=C([CH-]C(=O)C(F)(F)F)c1ccccc1.[Eu+3].c1ccncc1 in, do you know?
Response line: LOW

Prompt line: Hey, which category is CC1(C)CC(Nc2ccc(Nc3ccccc3)cc2)CC(C)(C)N1 in, do you know?
Response line: LOW

Prompt line: Hey, which category is CCN(CC)CCCC(C)NC(=O)c1ccc2c(c1)C(=O)c1ccccc1C2=O.Cl (stereo not drawn) in, do you know?
Response line: MEDIUM

Prompt line: Hey, which category is Nc1nc(N)c(-c2cccc(C(F)(F)F)c2)c(Cc2cccc(C(F)(F)F)c2)n1 in, do you know?
Response line: HIGH

Prompt line: Hey, which category is CC(/C=N/N=C(N)N)=N\N=C(N)N in, do you know?
Response line: HIGH

Prompt line: Hey, which category is Oc1cc2c3c(c1)c1cc4c(cc1c[n+]3CC2)OCO4.[Cl-] in, do you know?
Response line: MEDIUM

Prompt line: Hey, which category is CCN(CC)CCNc1ccc(C)c2sc3ccccc3c(=O)c12.Cl in, do you know?
Response line: LOW

Prompt line: Hey, which category is COc1cc([C@@H]2c3cc4c(c(O)c3C[C@H]3COC(=O)[C@@H]32)OCO4)cc(OC)c1OC in, do you know?
Response line: HIGH

Prompt line: Hey, which category is CC(C)C1=C(O)C2=C(C(=O)C1=O)C1(C)CCCC(C)(C)C1CC2O (stereo not drawn) in, do you know?
Response line: MEDIUM

Prompt line: Hey, which category is CN(C)CCNC(=O)c1cccc2[nH]c(-c3ccncc3)nc12.Cl in, do you know?
Response line: HIGH

Prompt line: Hey, which category is CCN1/C(=C\C(C)=C\c2sc3ccccc3[n+]2CC)Sc2ccccc21.[I-] in, do you know?
Response line: LOW

Prompt line: Hey, which category is O=S1(=O)CCN(c2ccccc2CC(c2c[nH]c3ccccc23)c2c[nH]c3ccccc23)CC1 in, do you know?
Response line: HIGH

Prompt line: Hey, which category is COc1ccc2cc1Oc1ccc(cc1)CC1c3c(cc(OC)c4c3Oc3cc5c(cc3O4)CCNC5C2)CCN1C (stereo not drawn) in, do you know?
Response line: LOW

Prompt line: Hey, which category is OCCNCN(CNCCO)c1nc(N(CNCCO)CNCCO)nc(N(CNCCO)CNCCO)n1 in, do you know?
Response line: MEDIUM

Prompt line: Hey, which category is CC1Oc2cc3c(-c4c(O)cc(O)c5c(O)c6c(cc45)OC(C)C(C)C6=O)c(O)cc(O)c3c(O)c2C(=O)C1C (stereo not drawn) in, do you know?
Response line: LOW

* * *

Test system: Huh-7.5 cells
Assay: Cell viability assay ([…]-GLO)
Type: cell-based, human
Conditions: 10 μM compound, triplicate, average ± SD
Would you mind telling me the reported Cell viability (% viable) of each entry?
Just the number in %, nothing appended.

Prompt line: // Input: Cc1ccc2nc(-c3ccc4nc(-c5ccc(NC(=O)c6ccc(C(F)(F)F)c(F)c6)cc5)sc4c3)sc2c1S(=O)(=O)O [Compound 23] . Output its Cell viability (% viable) only.
Response line: 129

Prompt line: // Input: Cc1ccc2nc(-c3ccc4nc(-c5ccc(NC(=O)c6ccc(N(C)C)cc6)cc5)sc4c3)sc2c1S(=O)(=O)O [Compound 14] . Output its Cell viability (% viable) only.
Response line: 94

Prompt line: // Input: Cc1ccc2nc(-c3ccc4nc(-c5ccc(NC(=O)c6c(F)cccc6C(F)(F)F)cc5)sc4c3)sc2c1S(=O)(=O)O [Compound 21] . Output its Cell viability (% viable) only.
Response line: 122

Prompt line: // Input: COc1ccc(S(=O)(=O)Nc2ccc(-c3nc4ccc(-c5nc6ccc(C)c(S(=O)(=O)O)c6s5)cc4s3)cc2)cc1 [Compound 29] . Output its Cell viability (% viable) only.
Response line: 75

Prompt line: // Input: Cc1ccc2nc(-c3ccc4nc(-c5ccc(NC(=O)c6cccc(C(F)(F)F)c6)cc5)sc4c3)sc2c1S(=O)(=O)O [Compound 20] . Output its Cell viability (% viable) only.
Response line: 121

Prompt line: // Input: Cc1ccc2nc(-c3ccc4nc(-c5ccc(NC(=O)c6cccc(C(F)(F)F)c6F)cc5)sc4c3)sc2c1S(=O)(=O)O [Compound 22] . Output its Cell viability (% viable) only.
Response line: 122

Prompt line: // Input: COC(=O)c1ccc(C(=O)Nc2ccc(-c3nc4ccc(-c5nc6ccc(C)c(S(=O)(=O)O)c6s5)cc4s3)cc2)cc1 [Compound 9] . Output its Cell viability (% viable) only.
Response line: 101

* * *

Test system: Huh-7.5 cells
Assay: Cell viability assay ([…]-GLO)
Type: cell-based, human
Conditions: 10 μM
READOUT: Cell Viability (% @ 10 μM)
Note to self: number, then unit, no commentary.

Prompt line: // Input: Cc1ccc2nc(-c3ccc4nc(-c5ccc(NC(=O)Nc6ccc(F)cc6)cc5)sc4c3)sc2c1S(=O)(=O)O.N . Output its Cell Viability (% @ 10 μM) only.
Response line: 93 ± 2%

Prompt line: // Input: Cc1ccc2nc(-c3ccc4nc(-c5ccc(NC(=O)c6ccccc6)cc5)sc4c3)sc2c1S(=O)(=O)O . Output its Cell Viability (% @ 10 μM) only.
Response line: 88 ± 2%

Prompt line: // Input: Cc1ccc2nc(-c3ccc4nc(-c5ccc(NC(=O)c6cc(F)cc(C(F)(F)F)c6)cc5)sc4c3)sc2c1S(=O)(=O)O . Output its Cell Viability (% @ 10 μM) only.
Response line: 113 ± 1%

Prompt line: // Input: Cc1ccc2nc(-c3ccc4nc(-c5ccc(NC(=O)c6cc(C(F)(F)F)cc(C(F)(F)F)c6)cc5)sc4c3)sc2c1S(=O)(=O)O . Output its Cell Viability (% @ 10 μM) only.
Response line: 122 ± 5%

Prompt line: // Input: Cc1ccc2nc(-c3ccc4nc(-c5ccc(NC(=O)c6cccnc6)cc5)sc4c3)sc2c1S(=O)(=O)O . Output its Cell Viability (% @ 10 μM) only.
Response line: 113 ± 6%

Prompt line: // Input: Cc1ccc2nc(-c3ccc4nc(-c5ccc(NC(=O)c6ccc7ncoc7c6)cc5)sc4c3)sc2c1S(=O)(=O)O . Output its Cell Viability (% @ 10 μM) only.
Response line: 114 ± 13%

Prompt line: // Input: COC(=O)c1ccc(C(=O)Nc2ccc(-c3nc4ccc(-c5nc6ccc(C)c(S(=O)(=O)O)c6s5)cc4s3)cc2)cc1 . Output its Cell Viability (% @ 10 μM) only.
Response line: 101 ± 8%

Prompt line: // Input: Cc1ccc2nc(-c3ccc4nc(-c5ccc(NC(=O)c6cccc(C(F)(F)F)c6F)cc5)sc4c3)sc2c1S(=O)(=O)O . Output its Cell Viability (% @ 10 μM) only.
Response line: 122 ± 1%

Prompt line: // Input: Cc1ccc2nc(-c3ccc4nc(-c5ccc(NC(=O)Nc6ccccc6)cc5)sc4c3)sc2c1S(=O)(=O)O.N . Output its Cell Viability (% @ 10 μM) only.
Response line: 108 ± 4%

Prompt line: // Input: Cc1ccc2nc(-c3ccc4nc(-c5ccc(NC(=O)c6ccc7ccccc7c6)cc5)sc4c3)sc2c1S(=O)(=O)O . Output its Cell Viability (% @ 10 μM) only.
Response line: 99 ± 11%

Prompt line: // Input: Cc1ccc2nc(-c3ccc4nc(-c5ccc(NC(=O)Nc6ccc(Cl)cc6)cc5)sc4c3)sc2c1S(=O)(=O)O . Output its Cell Viability (% @ 10 μM) only.
Response line: 98 ± 1%

Prompt line: // Input: Cc1ccc2nc(-c3ccc4nc(-c5ccc(NC(=O)c6ccc(Cl)cc6)cc5)sc4c3)sc2c1S(=O)(=O)O . Output its Cell Viability (% @ 10 μM) only.
Response line: 84 ± 6%

Prompt line: // Input: CC(=O)Nc1ccc(-c2nc3ccc(-c4nc5ccc(C)c(S(=O)(=O)O)c5s4)cc3s2)cc1 . Output its Cell Viability (% @ 10 μM) only.
Response line: 102 ± 9%

Prompt line: // Input: Cc1ccc2nc(-c3ccc(NC(=O)c4ccc(C(F)(F)F)cc4)cc3)sc2c1S(=O)(=O)O . Output its Cell Viability (% @ 10 μM) only.
Response line: 102 ± 9%

Prompt line: // Input: Cc1ccc(C(=O)Nc2ccc(-c3nc4ccc(-c5nc6ccc(C)c(S(=O)(=O)O)c6s5)cc4s3)cc2)cc1 . Output its Cell Viability (% @ 10 μM) only.
Response line: 87 ± 4%

Origin of measurements: patent US9464064B2
